Biological target: T1, hErbB3.mFc (soluble dimeric human ErbB3 extracellular domain fused to mouse Fc) (human)
T1 construct: called dimeric
T1 chain: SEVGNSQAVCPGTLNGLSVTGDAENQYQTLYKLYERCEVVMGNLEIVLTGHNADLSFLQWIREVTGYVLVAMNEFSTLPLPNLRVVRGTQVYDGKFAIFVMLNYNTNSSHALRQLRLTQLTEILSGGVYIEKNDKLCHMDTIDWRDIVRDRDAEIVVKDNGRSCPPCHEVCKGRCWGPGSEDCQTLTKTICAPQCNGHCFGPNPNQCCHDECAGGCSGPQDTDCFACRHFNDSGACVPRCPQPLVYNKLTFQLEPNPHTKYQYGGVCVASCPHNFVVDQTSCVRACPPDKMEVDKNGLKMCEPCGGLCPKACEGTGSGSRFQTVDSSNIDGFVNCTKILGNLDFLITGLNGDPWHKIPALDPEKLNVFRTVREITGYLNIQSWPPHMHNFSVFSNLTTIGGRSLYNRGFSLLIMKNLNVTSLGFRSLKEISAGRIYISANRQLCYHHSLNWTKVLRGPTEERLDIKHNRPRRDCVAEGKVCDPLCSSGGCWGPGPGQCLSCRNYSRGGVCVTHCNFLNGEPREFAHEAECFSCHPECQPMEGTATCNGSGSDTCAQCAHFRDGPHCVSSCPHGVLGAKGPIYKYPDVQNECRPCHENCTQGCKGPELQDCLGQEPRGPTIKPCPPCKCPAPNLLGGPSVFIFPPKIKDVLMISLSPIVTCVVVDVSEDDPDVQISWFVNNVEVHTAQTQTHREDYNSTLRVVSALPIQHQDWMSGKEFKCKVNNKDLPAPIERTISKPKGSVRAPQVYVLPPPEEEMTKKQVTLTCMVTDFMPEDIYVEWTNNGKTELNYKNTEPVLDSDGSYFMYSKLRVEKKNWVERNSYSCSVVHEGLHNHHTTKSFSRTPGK
Test: SPR (Biacore), 25 C, mAb capture format
observationType: kon (M⁻¹ s⁻¹)
Write the value in M⁻¹ s⁻¹ as a bare number.

{"binder": "H4H2114P (antibody, V domains shown, Fully human, human IgG4 Fc (H4H prefix)) VH: QVQLVESGGGVVQPGRSLRLSCAASGFTFSSYGMHWVRQAPGKGLEWVAGMSYDGSSKYYEDSVKGRFTISRDNSKNTLNLQMNSLRVEDTAVYYCAKERDYVEYVDSYYGMDVWGQGTTVTVSA VL: AIQMTQSPSSLSASVGDRVTITCRASQGIRNDLGWYQQKPGKAPKVLIYAASSLQSGVPSRFSGSGSGTVFTLTISSLQPEDFATYYCLQDYNYPLTFGGGTKVEIKR", "unitAnnotation": "M⁻¹ s⁻¹", "reported": "1.48e+06"}

Quick one: kon for H4H2108P (antibody, V domains shown, Fully human, human IgG4 Fc (H4H prefix)) VH: EVQLLESGGDLVQPGGSLRLSCATSGFSFSSDAMNWVRQAPGKGLEWVSGISGSGGNTYYADSVKGRFTISRDISKSTLSLQMNSLRAEDTAVYYCAKEGTNMVRGVVMEDNGMDVWGQGTTVTVSA VL: DIQMTQSPSSVSASVGDRVTITCRASQGISDYLAWYQQKPGKAPKLLIYAASSLQSGVPSRFSGRGSGTDFTLTISTLQPEDFATYYCQQANSFPLTFGGGTKVDIKR ? 2.96e+06

Quick one: kon for H4H2143P (antibody, V domains shown, Fully human, human IgG4 Fc (H4H prefix)) VH: EVQLVESGGGLVQPGRSLRLSCAASGFTFGDYAMHWVRQAPGKGLEWVSGINLNSGTIGYADSVKGRFTISRDNAKNSLYLQMNSLRAEDTAFYYCAKDIDGYYHYAMDVWGQGTTVTVSS VL: DVVMTQSPSFLSASVGDRVTITCWASQGISSYLAWYQQKPGKAPKLLIYDASTLESGVPSRFSGSGSGTEFTLTISNLQPEDFATYYCQQVNSYPLTFGGGTKVEIKR ? 2.86e+06
